- protocol-details: in vivo
- test-settings: mouse, po, NMRI mice, 7 days, "higher than" = highest dose administered without any death
# Lookup of reported LD50 at 168 h keyed by entry

{"columns": ["compound", "LD50 at 168 h"],
 "data": [
  ["CCCCNCC(O)CO/N=C1\\CCCC\\C1=C/c1ccc(Cl)cc1 (racemic) [Compound L]", "1300 mg/kg"],
  ["OC(CNC1CCCCC1)CO/N=C1\\CCCC\\C1=C/c1ccc(Cl)cc1 (racemic) [Compound E]", "> 1000 mg/kg"],
  ["CCCCCCNCC(O)CO/N=C1\\CCCC\\C1=C/c1ccc(Cl)cc1 (racemic) [Compound F]", "> 1000 mg/kg"],
  ["CCCCNCC(O)CO/N=C1\\CCCC\\C1=C/c1ccc(Cl)c(Cl)c1 (racemic) [Compound A]", "> 1000 mg/kg"],
  ["CN(CC(O)CO/N=C1\\CCCC\\C1=C/c1ccc(Cl)cc1)C1CCCCC1 (racemic) [Compound D]", "> 1000 mg/kg"],
  ["COc1ccc2nc([S+]([O-])Cc3ncc(C)c(OC)c3C)[nH]c2c1 (centres unmarked) [omeprazole, reference compound]", "> 4000 mg/kg"],
  ["CCCCCCNCC(O)CO/N=C1\\CCCC\\C1=C/c1ccccc1 (racemic) [Compound C]", "> 1000 mg/kg"],
  ["CCCN(CCC)CC(O)CO/N=C1\\CCCC\\C1=C/c1ccc(Cl)c(Cl)c1 (racemic) [Compound B]", "> 1000 mg/kg"]
]}

----------
- System: Helicobacter pylori
- protocol-details: Antibacterial effect on Helicobacter pylori (MIC, blood agar)
- Format: cell-based
- test-settings: Helicobacter pylori, 72 h, strain 6656
# Lookup of reported MIC keyed by entry

{"columns": ["compound", "MIC"],
 "data": [
  ["CN(C)CC(O)CO/N=C1\\CCCC\\C1=C/c1ccc(Cl)cc1 (racemic) [Compound G]", "31.2 µg/mL"],
  ["CCCCCCNCC(O)CO/N=C1\\CCCC\\C1=C/c1ccccc1 (racemic) [Compound C]", "3.9 µg/mL"],
  ["NC[C@H]1CC[C@H](C(=O)Oc2ccc(CCC(=O)O)cc2)CC1 [cetraxate, reference compound]", "> 500 µg/mL"],
  ["CN(CC(O)CO/N=C1\\CCCC\\C1=C/c1ccc(Cl)cc1)C1CCCCC1 (racemic) [Compound D]", "15.6 µg/mL"]
]}

----------
- System: gastric erosions induced by ethanol containing hydrochloric acid
- protocol-details: Test with ethanol containing hydrochloric acid (gastric erosions)
- Type: in vivo, rat
- test-settings: po; rat, p.o., HCl/absolute ethanol 1 to 50; erosion frequency; read-out: Inhibition of the erosion frequency, ED50 p.o.
Output Y for records whose ED50 is lower than 20 mg/kg, N for records at or above 20 mg/kg.

{"columns": ["compound", "tgt", "class-label"],
 "data": [
  ["COc1ccccc1/C=C1\\CCCC\\C1=N/OCC(O)CN1CCN(c2ccccc2OC)CC1 (racemic)", "gastric erosions induced by ethanol containing hydrochloric acid", "N"],
  ["C=CCNCC(O)CO/N=C1\\CCCC\\C1=C/c1ccc(Cl)cc1 (racemic)", "gastric erosions induced by ethanol containing hydrochloric acid", "N"],
  ["CCCCNCC(O)CO/N=C1\\CCCC\\C1=C/c1ccc(Cl)c(Cl)c1 (racemic)", "gastric erosions induced by ethanol containing hydrochloric acid", "Y"],
  ["CC(C)N(CC(O)CO/N=C1\\CCCC\\C1=C/c1ccc(Cl)cc1)C(C)C (racemic)", "gastric erosions induced by ethanol containing hydrochloric acid", "Y"],
  ["CN(CC(O)CO/N=C1\\CCCC\\C1=C/c1ccc(Cl)cc1)C1CCCCC1 (racemic)", "gastric erosions induced by ethanol containing hydrochloric acid", "Y"]
]}

----------
# Lookup of reported MIC keyed by entry
- Tested on: Helicobacter pylori
- protocol-details: Antibacterial effect on Helicobacter pylori (MIC, blood agar)
- Format: cell-based
- test-settings: Helicobacter pylori, 72 h, strain 3842
readout-name: MIC (µg/mL)

{"columns": ["molecule", "unit-abbreviation", "bound-sign", "observed"],
 "data": [
  ["CN(C)CC(O)CO/N=C1\\CCCC\\C1=C/c1ccc(Cl)cc1 (racemic)", "µg/mL", "=", 62.5],
  ["CN(CC(O)CO/N=C1\\CCCC\\C1=C/c1ccc(Cl)cc1)C1CCCCC1 (racemic)", "µg/mL", "=", 15.6],
  ["CCCCCCNCC(O)CO/N=C1\\CCCC\\C1=C/c1ccccc1 (racemic)", "µg/mL", "=", 3.9],
  ["NC[C@H]1CC[C@H](C(=O)Oc2ccc(CCC(=O)O)cc2)CC1 [cetraxate, reference compound]", "µg/mL", ">", 500]
]}

----------
- Tested on: gastric erosions induced by ethanol containing hydrochloric acid
- protocol-details: Test with ethanol containing hydrochloric acid (gastric erosions)
- Type: in vivo, rat
- test-settings: ED50 of cetraxate divided by ED50 of compound tested; erosion index
Output rule met for records whose Inhibition of the erosion index, relative activity is lower than 2, rule not met for records at or above 2.

{"columns": ["compound", "class-label"],
 "data": [
  ["CC(C)N(CC(O)CO/N=C1\\CCCC\\C1=C/c1ccc(Cl)cc1)C(C)C (racemic)", "rule not met"],
  ["CN(CC(O)CO/N=C1\\CCCC\\C1=C/c1ccc(Cl)cc1)C1CCCCC1 (racemic)", "rule not met"],
  ["CCCN(CCC)CC(O)CO/N=C1\\CCCC\\C1=C/c1ccc(Cl)c(Cl)c1 (racemic)", "rule met"],
  ["CCCCNCC(O)CO/N=C1\\CCCC\\C1=C/c1ccc(Cl)c(Cl)c1 (racemic)", "rule not met"],
  ["CN(C)CCCNCC(O)CO/N=C1\\CCCC\\C1=C/c1ccccc1 (racemic)", "rule met"],
  ["CCCCNCC(O)CO/N=C1\\CCCC\\C1=C/c1ccc(Cl)cc1 (racemic)", "rule not met"],
  ["C=CCNCC(O)CO/N=C1\\CCCC\\C1=C/c1ccc(Cl)cc1 (racemic)", "rule not met"],
  ["CC(C)NCC(O)CO/N=C1\\CCCC\\C1=C/c1ccc(Br)cc1 (racemic)", "rule met"]
]}

----------
# Lookup of reported ED50 keyed by entry
- Test system: gastric erosions induced by ethanol containing hydrochloric acid
- protocol-details: Test with ethanol containing hydrochloric acid (gastric erosions)
- Format: in vivo, rat
- test-settings: po; rat, p.o., HCl/absolute ethanol 1 to 50; erosion frequency; read-out: Inhibition of the erosion frequency, ED50 p.o.
readout-name: ED50

{"columns": ["compound", "readout-name", "observed"],
 "data": [
  ["CN(C)CCCNCC(O)CO/N=C1\\CCCC\\C1=C/c1ccccc1 (racemic)", "ED50", "30 to 60 mg/kg"],
  ["CC(C)NCC(O)CO/N=C1\\CCCC\\C1=C/c1ccc(Br)cc1 (racemic)", "ED50", "15 to 30 mg/kg"],
  ["CCCCNCC(O)CO/N=C1\\CCCC\\C1=C/c1ccc(Cl)cc1 (racemic)", "ED50", "30 to 60 mg/kg"],
  ["CCCN(CCC)CC(O)CO/N=C1\\CCCC\\C1=C/c1ccc(Cl)c(Cl)c1 (racemic)", "ED50", "20.1 mg/kg"]
]}

Data origin, for the record: patent US5597822A
